assay: chemical genetic growth profiling, strain panel (AID 1159580);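 further: tested at 20 µM; growth read once vehicle control cultures reached saturation at 30 °C; 1 = growth at the plate median or of vehicle wells; lower values mean less growth of the strain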; details: S. cerevisiae deletion strains, growth OD, locus YAL021C, strain ccr4, hits give low values
Hit rate of the full screen: of about 5,500 compounds, about 2,000 (36%) were called active. Inconclusive results (about 18%) are left out. Some of the results follow.
The compounds listed here are annotated with their normalized growth.
// return a plain number; no unit text

Consider the worked cases shown below.
# compound, normalized growth
rows = [
    ("O=C(Oc1cc(OC(=O)c2ccccc2)c2c(c1)O[C@H](c1ccc(OC(=O)c3ccccc3)c(OC(=O)c3ccccc3)c1)[C@@H](OC(=O)c1ccccc1)C2)c1ccccc1", 1.01),
    ("Cc1[nH]c2ccccc2c1CN(C)C", 1.01),
]

Consider now this further compound.
Report normalized growth for Cc1ccc(S(=O)(=O)NC(=O)NN2CCCCCC2)cc1 please. 0.999

---

experiment: chemical genetic growth profiling, strain panel (AID 1159580);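 further: tested at 20 µM; growth read once vehicle control cultures reached saturation at 30 °C; 1 = growth at the plate median or of vehicle wells; lower values mean less growth of the strain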; details: S. cerevisiae deletion strains, growth OD, locus YBR231C, strain swc5, hits give low values
The whole screen tested about 5,500 compounds, of which about 2,000 (36%) were called active. Another 18% or so got no clear call; they are omitted. The list shows a part of the results.
Binary label based on normalized growth with cut-off 1: below gives TRUE, not below gives FALSE.

Below 1 on normalized growth? Entry CC[C@@]1(O)C[C@H](O[C@H]2C[C@H](N(C)C)[C@H](O)[C@H](C)O2)c2c(cc3c(c2O)C(=O)c2c(O)cccc2C3=O)[C@H]1C(=O)OC TRUE

A record lists O=S(=O)(O)c1cc(N=C=S)ccc1/C=C/c1ccc(N=C=S)cc1S(=O)(=O)O . Is its normalized growth below 1? FALSE

Record CC[C@@]1(O)C[C@H](O)c2c(cc3c(c2O)C(=O)c2c(O)ccc(O)c2C3=O)[C@H]1C(=O)OC : is its normalized growth strictly below 1? TRUE

# strict comparison: is reported normalized growth < 1? input = c1ccc2c(c1)sc1ccccc12 TRUE

---

assay: chemical genetic growth profiling, strain panel (AID 1159580);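 further: tested at 20 µM; growth read once vehicle control cultures reached saturation at 30 °C; 1 = growth at the plate median or of vehicle wells; lower values mean less growth of the strain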; details: S. cerevisiae deletion strains, growth OD, locus YNR049C, strain mso1, hits give low values
Screen size: about 5,500 compounds; about 2,000 (36%) were called active. About 18% were inconclusive and are not listed. Some of the results follow.
Recorded normalized growth by entry
Please give the numeric answer without any surrounding text.

# molecule, reported result
measured = [
    ("C=CC[C@]1(O)CCC2C3CCC4=CC(=O)CCC4=C3C=C[C@@]21C (some centres undefined)", 0.997),
]

Entry under review: Oc1cc(O)c2c(c1)O[C@H](c1cc(O)c(O)c(O)c1)[C@H](O)C2 . Reported normalized growth? 1.02

What value of normalized growth has been recorded for this entry: CC[C@@]1(O)C[C@H](O[C@H]2C[C@H](N(C)C)[C@H](O)[C@H](C)O2)c2c(cc3c(c2O)C(=O)c2c(O)cccc2C3=O)[C@H]1C(=O)OC 0.946

Entry CC[C@@]1(O)C[C@H](O)c2c(cc3c(c2O)C(=O)c2c(O)ccc(O)c2C3=O)[C@H]1C(=O)OC has what normalized growth? 0.976

---

Some molecules, each annotated with its measured normalized growth.
test: chemical genetic growth profiling, strain panel (AID 1159580);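 further: tested at 20 µM; growth read once vehicle control cultures reached saturation at 30 °C; 1 = growth at the plate median or of vehicle wells; lower values mean less growth of the strain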; conditions: S. cerevisiae deletion strains, growth OD, locus YIL066C, strain RNR3, hits give low values
The campaign covered roughly 5,500 compounds. About 2,000 (36%) were called active. Inconclusive results (about 18%) are left out. The list shows a part of the results.
Reply with the value as a number alone.

# molecule, value type, reported result
records = [
    ("CC1COc2c(N3CCN(C)CC3)c(F)cc3c(=O)c(C(=O)O)cn1c23 (stereo not given)", "normalized growth", 1.01),
    ("O=C1c2ccc(O)cc2O[C@H](c2cc(O)c(O)c(O)c2)[C@H]1O", "normalized growth", 0.99),
    ("CC[C@@]1(O)C[C@H](O[C@H]2C[C@H](N(C)C)[C@H](O)[C@H](C)O2)c2c(cc3c(c2O)C(=O)c2c(O)ccc(O)c2C3=O)[C@H]1C(=O)OC", "normalized growth", 0.073),
    ("O=C(O[C@@H]1Cc2c(O)cc(O)cc2O[C@@H]1c1cc(O)c(O)c(O)c1)c1cc(O)c(O)c(O)c1", "normalized growth", 0.176),
]

State the recorded normalized growth for this entry: C[n+]1c2cc(N)ccc2cc2ccc(N)cc21 0.792

Given the entry COc1cc(OC)c2c(c1)O[C@H](c1cc(OC)c(OC)c(OC)c1)[C@H](OC(=O)c1cc(OC)c(OC)c(OC)c1)C2 , report its measured normalized growth. 0.997

Param item = CC[C@H]1OC(=O)[C@H](C)[C@@H](O[C@H]2C[C@@](C)(OC)[C@@H](O)[C@H](C)O2)[C@H](C)[C@@H](O[C@@H]2O[C@H](C)C[C@H](N(C)C)[C@H]2O)[C@](C)(OC)C[C@@H](C)C(=O)[C@H](C)[C@@H](O)[C@]1(C)O ; retrieve measured normalized growth. 0.985

Sample CC(C)NCC(O)COc1cccc2[nH]ccc12 (stereo not given) — what was its normalized growth? 0.999

// query normalized growth value for entry CN1CC(=O)N=C1N 1.02

Quick one: normalized growth for COC(=O)C[C@H]1C2(C)CC34OC5(C)O[C@@]6([C@H](OC(C)=O)C(OC(C)=O)[C@]7(C)C(/C(=C(/O)C(C)C)C(=O)O[C@H]7c7ccoc7)[C@@]6(O5)[C@H](OC(C)=O)[C@@]3(O)C2OC(=O)C(C)C)[C@]14C (stereo not given in full) ? 0.963

Could you share which normalized growth value was measured for CC[C@@]1(O)C[C@H](O[C@H]2C[C@H](N(C)C)[C@H](O)[C@H](C)O2)c2c(cc3c(c2O)C(=O)c2c(O)cccc2C3=O)[C@H]1C(=O)OC ? 0.79

Look up normalized growth: COc1c(N2CCNC(C)C2)c(F)cc2c(=O)c(C(=O)O)cn(C3CC3)c12 (stereo not given) 1.02
